- assay-overview: refractive index (Na D-line) (dimensionless)
- condition-notes: 298.15 K; 101.33 kPa; Liquid; Standard Abbe refractometry
property-label: refractive index
Please reply with the value in numeric form only.

Check out these entries, answers already filled in.
{"chem-smiles": "CC(=O)CC(C)C", "refractive index": 1.3936}
{"chem-smiles": "CC(C)O", "refractive index": 1.3754}
{"chem-smiles": "O", "refractive index": 1.3325}

// next item, refractive index requested
[Q] Need refractive index of "CCCO" , thanks.
[A] 1.3836

Hello, the source for this data is the NIST ThermoML archive (doi:10.1016/j.fluid.2013.10.034), in case you need it.
